src = ChEMBL document CHEMBL4706608

Tested on: BV-2
Assay: Anti-neuroinflammation in mouse BV2 cells assessed as inhibition of LPS-induced NO production preincubated for 1 hr followed by LPS addition measured after 24 hrs by Griess reagent based assay
Type: functional, cell-based
measure: IC50
Please answer in the form of a number followed by its unit of measurement.

Exam item: Any idea what IC50 was measured for `CC(C)(C)c1ccc(S(=O)(=O)Nc2ccc(-c3nc(-c4ccnc(Nc5ccc(F)c(F)c5)c4)no3)cc2)cc1` ?
Marked response: 2.44 µM

Exam item: Field entry: `O=S(=O)(Nc1ccc(-c2nc(-c3ccnc(Nc4ccc(OC(F)(F)F)cc4)c3)no2)cc1)c1ccc(Cl)s1`
Marked response: 6.23 µM

Exam item: Field entry: `CC(C)(C)c1ccc(S(=O)(=O)Nc2ccc(-c3nc(-c4ccnc(Nc5ccc(Cl)cc5F)c4)no3)cc2)cc1`
Marked response: 4.4 µM

Exam item: Field entry: `CCc1ccc(Nc2cc(-c3noc(-c4ccc(NS(=O)(=O)c5ccc(C(C)(C)C)cc5)cc4)n3)ccn2)cc1`
Marked response: 5.4 µM
